// PAMPA (−Log Pe) lookup, one value per entry
# METHOD: PAMPA experiment
# Type: in vitro ADME
# MEASUREMENT_CONTEXT: 1.8% lecithin membrane, drug test solution 10 μM, 37° C., 16 hours

COMPOUND: N[C@H]1CCC(=O)OCc2ccc3c(=O)cc(oc3c2)-c2ccc(cc2Cl)OCCOC/C=C/COCCOc2ccc3c(c2)CN(C3=O)C2CCC(=O)N(COC1=O)C2=O (stereo partly drawn)
PAMPA (−Log Pe): 4.68

COMPOUND: O=C1OCc2cc3oc(cc(=O)c3cc2I)-c2ccc(cc2Cl)OCCOC/C=C\COCCOc2ccc3c(c2)CN(C3=O)C2CCC(=O)N(COC1=O)C2=O (stereo not drawn)
PAMPA (−Log Pe): 5.94

Shifting focus to the compound that follows.
Task: State the recorded PAMPA (−Log Pe) for this entry: CN1CC(=O)OCc2ccc3c(=O)cc(oc3c2)-c2ccc(cc2Cl)OCCOCCCCOCCOc2ccc3c(c2)CN(C3=O)C2CCC(=O)N(COC(=O)C1)C2=O (stereo not drawn)
Output: 5.56
